Test system: A549/ATCC NSCLC
Assay: NCI-60 one-dose screen, 48 h (100 = growth as untreated, 0 = no growth, -100 = all killed)
Details: 10 µM unless noted
Compounds without any hit were thinned out: in the full panel of roughly 83,000, 20% have a hit.
Give growth for every item shown.
Provide the reading as a plain figure in %.

# input Any idea what growth came out for `Cc1ccc(S(=O)(=O)N/N=C\c2cc(Cl)ccc2O)cc1` on A549/ATCC NSCLC?
# output 82

# input Any idea what growth came out for N#CC1=C(c2ccc(Br)cc2)NC(SCC(=O)c2ccc(Br)cc2)NC1=O (stereo not drawn) on A549/ATCC NSCLC?
# output 93.8

# input Any idea what growth came out for `Cc1c(C(=O)N[C@@H](Cc2ccccc2)C(=O)C(=O)NCCc2ccccc2)[nH]c2ccccc2c1=O` on A549/ATCC NSCLC?
# output 98.8

# input Any idea what growth came out for `Cc1cc(=O)[nH]c(N=Nc2c(O)[nH]c3ccccc23)n1` on A549/ATCC NSCLC?
# output 103

# input Any idea what growth came out for COc1ccc(-c2nc3c(c(=O)n2C(C)=O)C(c2ccc(Cl)cc2)c2sc4c(Cl)cccc4c2O3)cc1 (stereo not drawn) on A549/ATCC NSCLC?
# output -55

# input Any idea what growth came out for `Cc1cc[c-]cc1.Fc1c[c-]c(-c2ccccn2)c(F)c1.[Pt+2].c1ccc(P(C[PH+](c2ccccc2)c2ccccc2)c2ccccc2)cc1` on A549/ATCC NSCLC?
# output 8.52

# input Any idea what growth came out for CC(=O)OC1CCC2(C)C(=CC3C4CCC(=O)C4(C)CCC32)C1 (stereo not drawn) on A549/ATCC NSCLC?
# output 101

# input Any idea what growth came out for `C=CCOC1=CC(=O)c2ccccc2C1=O` on A549/ATCC NSCLC?
# output 91.4

====

System: SF-268 CNS
Experiment: NCI-60 one-dose screen, 48 h (100 = growth as untreated, 0 = no growth, -100 = all killed)
Conditions: 10 µM unless noted
About 83,000 compounds went through this panel and 20% of them were active in at least one assay; those are over-represented in the sample as a whole.
quantity.measured: growth (%)
Provide the reading as a plain figure in %.

# input Param item = Cc1ccc(-n2nc3c(c(C#N)c2=O)CC(c2ccccc2Cl)C([N+](=O)[O-])=C3O)cc1 (stereo not drawn) ; retrieve measured growth.
# output 90

# input Param item = `C=CCSc1nc2ccccc2cc1/C=N/O` ; retrieve measured growth.
# output 90.8

# input Param item = `CC/C=C\CCC/C=C1/C(=O)C=C[C@@H]1C/C=C\CCCC(=O)O` ; retrieve measured growth.
# output 89

====

Tested on: HOP-92 NSCLC
Assay: NCI-60 one-dose screen, 48 h
Conditions: 10 µM unless noted
This is part of a sample that, as a whole, favours compounds with a hit. Of some 83,000 tested, about 20% had one in any assay. Active and inactive are the calls of the source. The calls were made as follows: active = growth percent below 10; inactive = the rest.
Returns: one label drawn from active, inactive

# input Short answer needed: outcome of this test for O=C(NC(CSSCC(NC(=O)c1ccccc1)C(=O)O)C(=O)O)c1ccccc1 (configuration not stated) ?
# output inactive

# input Short answer needed: outcome of this test for `O=C(Nc1ccccc1)Nc1cccc(Oc2nnc(Cl)c3ccccc23)c1` ?
# output active

# input Short answer needed: outcome of this test for `COc1cccc(-c2nc3sccn3c2/C=C/C(=O)c2ccc(C(F)(F)F)cc2)c1` ?
# output inactive

# input Short answer needed: outcome of this test for `O=c1ssc(Cl)c1-c1ccccc1` ?
# output inactive

# input Short answer needed: outcome of this test for `Cc1ccc(Nc2ccc(Nc3ccc(C)cc3)c3c2C(=O)c2cccc(O)c2C3=O)cc1` ?
# output inactive

# input Short answer needed: outcome of this test for `O=C(c1ccccc1)c1c(/C=C/c2ccccc2)nc2ccccc2c1/C=C/c1ccc(Br)cc1` ?
# output inactive

# input Short answer needed: outcome of this test for `COc1ccc(-c2csc(C3=C(O)CN(C(C)C)C3=N)n2)cc1OC` ?
# output inactive

# input Short answer needed: outcome of this test for `COc1cc(N=Nc2cc(Cc3ccc(N(C)C)cc3)c(N)cc2N(C)C)c2ncccc2c1` ?
# output active

# input Short answer needed: outcome of this test for Nc1nc(N)c2c(n1)NC(c1ccccc1)C1CCc3ccccc3C1=N2 (configuration not stated) ?
# output inactive

# input Short answer needed: outcome of this test for `C=C1C(=O)O[C@H]2[C@H]1CC/C(COC(=O)C(=O)c1cn(C)c3ccc(OC)cc13)=C\CC[C@@]1(C)O[C@@H]21` ?
# output active

# input Short answer needed: outcome of this test for `N#Cc1c(N)nc(NCCO)nc1-c1ccc(F)cc1` ?
# output inactive

# input Short answer needed: outcome of this test for `COc1cc(Cn2ncc3ccc(NC(=O)c4cc5ccccc5oc4=N)cc32)cc(OC)c1OC` ?
# output inactive

# input Short answer needed: outcome of this test for `O=C(N=c1oc2ccccc2cc1-c1cc2ccccc2[nH]1)c1ccc(Cl)cc1` ?
# output inactive

# input Short answer needed: outcome of this test for CN1C(=O)N(C)C2C1NN=c1s/c(=C\c3ccccc3)c(=O)n12 (configuration not stated) ?
# output inactive

# input Short answer needed: outcome of this test for `O=C(/C=C/c1ccco1)c1ccc(Nc2nc(Nc3ccc(F)cc3)nc(Nc3ccc(Cl)cc3)n2)cc1` ?
# output inactive

# input Short answer needed: outcome of this test for `Cc1cccc(Cc2cnc(NC(=O)/C=C/c3ccco3)s2)c1` ?
# output inactive

# input Short answer needed: outcome of this test for COC(=O)c1ccc(C2Nc3ccc(S(=O)(=O)Nc4ccc(C)c(C)c4)cc3C3OCCC23)cc1 (configuration not stated) ?
# output inactive

# input Short answer needed: outcome of this test for `CCN(CC)S(=O)(=O)c1cccc(-c2ccc3c(NC(=O)C4CC4)n[nH]c3c2)c1` ?
# output inactive

# input Short answer needed: outcome of this test for `Cc1cc(C)c2c(-c3nnc(N)s3)cc(=O)oc2c1` ?
# output inactive

# input Short answer needed: outcome of this test for `CCN(CC)CCn1nc2c3c(cccc3c1=O)-c1ccccc1-2` ?
# output active

# input Short answer needed: outcome of this test for `COc1ccc(-c2ccc3c(c2)sc2nc(-c4ccc(F)cc4)cn23)cc1` ?
# output inactive

# input Short answer needed: outcome of this test for `O=C(O)CN1C(=O)CCC1=O` ?
# output inactive

====

System: LOX IMVI melanoma
Test: NCI-60 one-dose screen, 48 h (100 = growth as untreated, 0 = no growth, -100 = all killed)
Conditions: 10 µM unless noted
About 83,000 compounds went through this panel and 20% of them were active in at least one assay; those are over-represented in the sample as a whole.
Give growth for every item shown.
Provide the reading as a plain figure in %.

# input Any idea what growth came out for O=[N+]([O-])c1ccc(C2CC(c3ccccc3)=Nc3ccccc3S2)cc1 (configuration not stated) on LOX IMVI melanoma?
# output 64.3

# input Any idea what growth came out for `CCN(CC)c1ccc(C(=O)c2ccc(N(CC)CC)cc2)cc1` on LOX IMVI melanoma?
# output 32.6

# input Any idea what growth came out for COc1cc2c(cc1-c1c(C)noc1C)ncc1nc(C3CCCCC3)n(C3CCC(OC(F)F)CC3)c12 (configuration not stated) on LOX IMVI melanoma?
# output 17.8

# input Any idea what growth came out for `CN1CCN(CCCOc2ccc3nc(Nc4ccc(F)c(F)c4)ccc3c2)CC1` on LOX IMVI melanoma?
# output -89.5

# input Any idea what growth came out for `COc1cc(-c2n/c(=C\c3c(O)[nH]c4ccc(Cl)cc34)cc3c2=Nc2ccccc2-3)cc(OC)c1OC` on LOX IMVI melanoma?
# output -63.6

# input Any idea what growth came out for `C#CCOc1nc(C)cc(C)c1C#N` on LOX IMVI melanoma?
# output 97.4

# input Any idea what growth came out for `O=c1ssc(Cl)c1-c1ccccc1` on LOX IMVI melanoma?
# output 92.5

# input Any idea what growth came out for CC1=C([Se]CC(OC(=O)CC[Se]c2ccccc2)C(=O)NCCCCCC(=O)OCc2ccccc2)C(=O)c2ccccc2C1=O (configuration not stated) on LOX IMVI melanoma?
# output 10.3

# input Any idea what growth came out for `O=S(=O)(NCCCNc1cc(-c2c(-c3cccc(O)c3)nc3sccn23)ccn1)c1cccc(Cl)c1` on LOX IMVI melanoma?
# output 29.6

# input Any idea what growth came out for CC(C)CC(NC(=O)CN(Cc1ccccc1)S(C)(=O)=O)C(=O)O (configuration not stated) on LOX IMVI melanoma?
# output 100

# input Any idea what growth came out for CC(C)(C)OC(=O)Nc1ccc2c(c1)C(NC(=O)Nc1cccc(C#N)c1)CC(C)(C)O2 (configuration not stated) on LOX IMVI melanoma?
# output 26.9

# input Any idea what growth came out for `Clc1cccc(Cl)c1/C=C/c1cc(/C=C/c2c(Cl)cccc2Cl)[nH]n1` on LOX IMVI melanoma?
# output 46.3

# input Any idea what growth came out for COc1cc(C2CC(c3cc(OC)c(OCCCOc4ccc(-n5c(/C=C/c6ccccc6)nc6ccccc6c5=O)cc4)c(OC)c3)=NO2)cc(OC)c1OC (configuration not stated) on LOX IMVI melanoma?
# output 94.6

# input Any idea what growth came out for `Cc1ccc(/C=C/c2c(C(=O)/C=C/c3ccc(C(F)(F)F)cc3)c(C)nc3ccccc23)cc1` on LOX IMVI melanoma?
# output -87.3

# input Any idea what growth came out for `COc1ccc(-c2ccc3c(c2)sc2nc(-c4ccc(F)cc4)cn23)cc1` on LOX IMVI melanoma?
# output 102

# input Any idea what growth came out for `C=CCn1c(C)nc2cc(Nc3nc(Cl)nc4ccccc34)ccc21` on LOX IMVI melanoma?
# output 104

# input Any idea what growth came out for `COc1ccc(-c2c(N)n[nH]c2-c2ccc(Cl)cc2O)cc1OC` on LOX IMVI melanoma?
# output 89.5

# input Any idea what growth came out for `Cc1ccc2nc3ccccc3c(NCc3ccccc3)c2c1` on LOX IMVI melanoma?
# output 9.08

# input Any idea what growth came out for `Fc1c[c-]c(-c2ccccn2)c(F)c1.[CH3-].[Pt+2].c1ccc(P(C[PH+](c2ccccc2)c2ccccc2)c2ccccc2)cc1` on LOX IMVI melanoma?
# output -92.9

# input Any idea what growth came out for `COc1ccc2c(c1)C(=O)/C(=C/c1ccc(OCC(=O)Nc3nccs3)cc1)O2` on LOX IMVI melanoma?
# output -58.2

# input Any idea what growth came out for CCOc1ccccc1-n1c(CN2CCN(C(=O)COc3ccc(CNCCCCCCN4C5CCCC4CC(OC(=O)Nc4cc(C)ccc4OC)C5)cc3)CC2)nc2ccccc2c1=O (configuration not stated) on LOX IMVI melanoma?
# output -92

# input Any idea what growth came out for `C=CCNc1nc(NN2C(=O)c3cccc4cccc(c34)C2=O)nc(-n2cnc3ccccc32)n1` on LOX IMVI melanoma?
# output 77.8
